- assayed system: T1, human IL-17A (construct not specified) (human, UniProt Q16552 24-155, limits assumed)
- T1 construct: also called huIL-17A
- T1 sequence: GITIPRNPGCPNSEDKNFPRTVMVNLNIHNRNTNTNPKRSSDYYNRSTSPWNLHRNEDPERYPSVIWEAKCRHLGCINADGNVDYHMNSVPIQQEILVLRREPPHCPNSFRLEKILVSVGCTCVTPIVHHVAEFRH
- protocol notes: ELISA, coated huIL-17A, long wash
A collection of binders and their measured Off-rate ELISA (normalized to XAB1 Fab)
value type: Off-rate ELISA (normalized to XAB1 Fab) (fold)

binder	result unit	observed measurement
MB433 (Fab, V domains shown, Fab variant of XAB1) VH: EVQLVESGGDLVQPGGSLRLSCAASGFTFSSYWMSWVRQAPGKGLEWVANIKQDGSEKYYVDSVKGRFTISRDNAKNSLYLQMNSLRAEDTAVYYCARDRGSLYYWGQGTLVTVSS VL: AIQLTQSPSSLSASVGDRVTITCRPSQGIYWGLAWYQQKPGKAPKLLIYDASSLENGVPSRFSGSGSGTDFTLTISSLQPEDFATYYCQQFNSYPLTFGGGTKVEIK	fold	39.7
MB468 (Fab, V domains shown, Fab variant of XAB1) VH: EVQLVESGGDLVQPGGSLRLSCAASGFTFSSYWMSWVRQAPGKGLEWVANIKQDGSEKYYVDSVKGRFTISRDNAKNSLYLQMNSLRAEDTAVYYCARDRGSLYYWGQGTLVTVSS VL: AIQLTQSPSSLSASVGDRVTITCRPSQGIYWELAWYQQKPGKAPKLLIYDASSLENGVPSRFSGSGSGTDFTLTISSLQPEDFATYYCQQFNSYPLTFGGGTKVEIK	fold	43.9
MB447 (Fab, V domains shown, Fab variant of XAB1) VH: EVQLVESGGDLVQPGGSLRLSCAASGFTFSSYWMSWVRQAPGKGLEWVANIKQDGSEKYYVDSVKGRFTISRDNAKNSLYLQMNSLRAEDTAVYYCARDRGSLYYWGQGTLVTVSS VL: AIQLTQSPSSLSASVGDRVTITCRPSQGIFWWLAWYQQKPGKAPKLLIYDASSLENGVPSRFSGSGSGTDFTLTISSLQPEDFATYYCQQFNSYPLTFGGGTKVEIK	fold	45.5
